experiment: toxicity (LD50); details: in vivo; oral administration; mice or rat
Structures can show the parent of a compound that is named as a salt.
Property Label: LD50

compound CC(OS(=O)(=O)O)C1C(=O)N2C(C(=O)O)=C(S(=O)(=O)O)CC12 (stereo not shown) [SF-2103A substance sodium salt] , LD50 observed: > 2000 mg/kg
